Hello, the source for this data is PubChem BioAssay AID2060508, in case you need it.

System: 454973-116-R2-J3-PDC spheroids, viability, % test/control
Test: Anticancer human tumor 454973-116-R2-J3-PDC patient-derived pancreatic carcinoma cell line growth inhibition [GQUAD]; active = viability on the fitted dose curve at most 10% of control; inactive = the rest
Settings: second compound 3.16 µM; first compound 10 µM; spheroids with HUVEC and MSC
Outcome codes: t for active, f for inactive

>  <MOLECULE>
CCCS(=O)(=O)Nc1ccc(F)c(C(=O)c2c[nH]c3ncc(-c4ccc(Cl)cc4)cc23)c1F + Cc1[nH]c2ccc(F)cc2c1-c1nc2c3cccnc3c3ncccc3c2[nH]1

>  <CLASS_ASSIGNMENT>
f

$$$$
>  <MOLECULE>
C#Cc1c(F)ccc2cc(O)cc(-c3ncc4c(N5CC6CCC(C5)N6)nc(OCC56CCCN5CC(F)C6)nc4c3F)c12 (stereo not given) + Cc1[nH]c2ccc(F)cc2c1-c1nc2c3cccnc3c3ncccc3c2[nH]1

>  <CLASS_ASSIGNMENT>
f

$$$$
>  <MOLECULE>
CC(=O)O[C@H]1C(=O)[C@@]2(C)[C@H]([C@H](OC(=O)c3ccccc3)[C@]3(O)C[C@H](OC(=O)[C@H](O)[C@@H](NC(=O)c4ccccc4)c4ccccc4)C(C)=C1C3(C)C)[C@]1(OC(C)=O)CO[C@@H]1C[C@@H]2O + Cc1cnc(CNC(=O)c2c(=O)c3ccc(N4CCCN(C)CC4)nc3n3c2sc2ccccc23)cn1

>  <CLASS_ASSIGNMENT>
f

$$$$
>  <MOLECULE>
O=c1[nH]cc(F)c(=O)[nH]1 + CN(C)c1ccc(Nc2c3ccc(NC(=O)CCN4CCCC4)cc3nc3cc(NC(=O)CCN4CCCC4)ccc23)cc1

>  <CLASS_ASSIGNMENT>
f

$$$$
>  <MOLECULE>
CC1COCCN1c1cc(C2(S(C)(=N)=O)CC2)nc(-c2ccnc3[nH]ccc23)n1 (stereo not given) + CN(C)c1ccc(Nc2c3ccc(NC(=O)CCN4CCCC4)cc3nc3cc(NC(=O)CCN4CCCC4)ccc23)cc1

>  <CLASS_ASSIGNMENT>
f

$$$$
>  <MOLECULE>
CC1COCCN1c1cc(C2(O)CC3CCC(C2)O3)c2cnn(-c3ccn[nH]3)c2n1 (stereo not given) + Cc1cnc(CNC(=O)c2c(=O)c3ccc(N4CCCN(C)CC4)nc3n3c2sc2ccccc23)cn1

>  <CLASS_ASSIGNMENT>
t

$$$$
>  <MOLECULE>
O=C(NO)c1cnc(N2CCN(S(=O)(=O)c3ccc4ccccc4c3)CC2)nc1 + Cc1[nH]c2ccc(F)cc2c1-c1nc2c3cccnc3c3ncccc3c2[nH]1

>  <CLASS_ASSIGNMENT>
t

$$$$
>  <MOLECULE>
CC(=O)O[C@H]1C(=O)[C@@]2(C)[C@H]([C@H](OC(=O)c3ccccc3)[C@]3(O)C[C@H](OC(=O)[C@H](O)[C@@H](NC(=O)c4ccccc4)c4ccccc4)C(C)=C1C3(C)C)[C@]1(OC(C)=O)CO[C@@H]1C[C@@H]2O + Cc1[nH]c2ccc(F)cc2c1-c1nc2c3cccnc3c3ncccc3c2[nH]1

>  <CLASS_ASSIGNMENT>
t

$$$$
>  <MOLECULE>
C#Cc1c(F)ccc2cc(O)cc(-c3ncc4c(N5CC6CCC(C5)N6)nc(OCC56CCCN5CC(F)C6)nc4c3F)c12 (stereo not given) + Cc1cnc(CNC(=O)c2c(=O)c3ccc(N4CCCN(C)CC4)nc3n3c2sc2ccccc23)cn1

>  <CLASS_ASSIGNMENT>
t

$$$$
>  <MOLECULE>
Nc1ccn(C2OC(CO)C(O)C2(F)F)c(=O)n1 (stereo not given) + Cc1cnc(CNC(=O)c2c(=O)c3ccc(N4CCCN(C)CC4)nc3n3c2sc2ccccc23)cn1

>  <CLASS_ASSIGNMENT>
f

$$$$

====

Test system: 454973-116-R2-J3-PDC spheroids, viability, % test/control
Assay: Anticancer human tumor 454973-116-R2-J3-PDC cell line growth inhibition [GQUAD];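 also: spheroids exposed to compounds for seven days; 100% = DMSO vehicle control viability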
Details: second compound 0.316 µM; first compound 0.1 µM; stronger effect = lower value; spheroids with HUVEC and MSC
# viability, T/C annotations

>  <MOLECULE>
CC1COCCN1c1cc(-c2ccnn2C)c2ccnc(-c3ccn[nH]3)c2n1 (stereo not given) + Cc1cnc(CNC(=O)c2c(=O)c3ccc(N4CCCN(C)CC4)nc3n3c2sc2ccccc23)cn1

>  <viability, T/C>
20%

$$$$
>  <MOLECULE>
CC(C)n1c(=O)n(C)c2cnc3cc(F)c(-c4ccc(OCCCN5CCCCC5)nc4)cc3c21 + CN(C)c1ccc(Nc2c3ccc(NC(=O)CCN4CCCC4)cc3nc3cc(NC(=O)CCN4CCCC4)ccc23)cc1

>  <viability, T/C>
103%

$$$$
>  <MOLECULE>
C=CC(=O)N1CCN(c2nc(=O)n(-c3c(C)ccnc3C(C)C)c3nc(-c4c(O)cccc4F)c(F)cc23)C(C)C1 (stereo not given) + Cc1cnc(CNC(=O)c2c(=O)c3ccc(N4CCCN(C)CC4)nc3n3c2sc2ccccc23)cn1

>  <viability, T/C>
79.6%

$$$$
>  <MOLECULE>
O=C(c1cc(Cc2n[nH]c(=O)c3ccccc23)ccc1F)N1CCN(C(=O)C2CC2)CC1 + CN(C)c1ccc(Nc2c3ccc(NC(=O)CCN4CCCC4)cc3nc3cc(NC(=O)CCN4CCCC4)ccc23)cc1

>  <viability, T/C>
91.6%

$$$$
>  <MOLECULE>
COc1cc(C2c3cc4c(cc3C(OC3OC5COC(C)OC5C(O)C3O)C3COC(=O)C23)OCO4)cc(OC)c1O (stereo not given) + CN(C)c1ccc(Nc2c3ccc(NC(=O)CCN4CCCC4)cc3nc3cc(NC(=O)CCN4CCCC4)ccc23)cc1

>  <viability, T/C>
98.7%

$$$$
>  <MOLECULE>
CC1COCCN1c1cc(C2(O)CC3CCC(C2)O3)c2cnn(-c3ccn[nH]3)c2n1 (stereo not given) + Cc1cnc(CNC(=O)c2c(=O)c3ccc(N4CCCN(C)CC4)nc3n3c2sc2ccccc23)cn1

>  <viability, T/C>
25.4%

$$$$
>  <MOLECULE>
CC(C)(O)C1CCC(Nc2ccc3ncc(-c4cccc(C(F)(F)F)c4)n3n2)CC1 (stereo not given) + CN(C)c1ccc(Nc2c3ccc(NC(=O)CCN4CCCC4)cc3nc3cc(NC(=O)CCN4CCCC4)ccc23)cc1

>  <viability, T/C>
90.3%

$$$$
>  <MOLECULE>
C#Cc1c(F)ccc2cc(O)cc(-c3ncc4c(N5CC6CCC(C5)N6)nc(OCC56CCCN5CC(F)C6)nc4c3F)c12 (stereo not given) + Cc1cnc(CNC(=O)c2c(=O)c3ccc(N4CCCN(C)CC4)nc3n3c2sc2ccccc23)cn1

>  <viability, T/C>
24.4%

$$$$
>  <MOLECULE>
C=CC(=O)N1CCN(c2nc(=O)n(-c3c(C)ccnc3C(C)C)c3nc(-c4c(O)cccc4F)c(F)cc23)C(C)C1 (stereo not given) + Cc1[nH]c2ccc(F)cc2c1-c1nc2c3cccnc3c3ncccc3c2[nH]1

>  <viability, T/C>
111%

$$$$
>  <MOLECULE>
COc1ccc([C@@H](O)c2cc(-c3ncnc4cc(N5CCOCC5)ccc34)c(F)cc2Cl)nn1 + CN(C)c1ccc(Nc2c3ccc(NC(=O)CCN4CCCC4)cc3nc3cc(NC(=O)CCN4CCCC4)ccc23)cc1

>  <viability, T/C>
91.5%

$$$$
>  <MOLECULE>
COc1ccc([C@@H](O)c2cc(-c3ncnc4cc(N5CCOCC5)ccc34)c(F)cc2Cl)nn1 + Cc1[nH]c2ccc(F)cc2c1-c1nc2c3cccnc3c3ncccc3c2[nH]1

>  <viability, T/C>
106%

$$$$
>  <MOLECULE>
C=CC(=O)N1CCN(c2nc(=O)n(-c3c(C)ccnc3C(C)C)c3nc(-c4c(O)cccc4F)c(F)cc23)C(C)C1 (stereo not given) + CN(C)c1ccc(Nc2c3ccc(NC(=O)CCN4CCCC4)cc3nc3cc(NC(=O)CCN4CCCC4)ccc23)cc1

>  <viability, T/C>
103%

$$$$
>  <MOLECULE>
Nc1ccn(C2OC(CO)C(O)C2(F)F)c(=O)n1 (stereo not given) + CN(C)c1ccc(Nc2c3ccc(NC(=O)CCN4CCCC4)cc3nc3cc(NC(=O)CCN4CCCC4)ccc23)cc1

>  <viability, T/C>
15.3%

$$$$
>  <MOLECULE>
CC1COCCN1c1cc(C2(S(C)(=N)=O)CC2)nc(-c2ccnc3[nH]ccc23)n1 (stereo not given) + Cc1cnc(CNC(=O)c2c(=O)c3ccc(N4CCCN(C)CC4)nc3n3c2sc2ccccc23)cn1

>  <viability, T/C>
73%

$$$$
>  <MOLECULE>
CC(C)(O)C1CCC(Nc2ccc3ncc(-c4cccc(C(F)(F)F)c4)n3n2)CC1 (stereo not given) + Cc1[nH]c2ccc(F)cc2c1-c1nc2c3cccnc3c3ncccc3c2[nH]1

>  <viability, T/C>
98.1%

$$$$
>  <MOLECULE>
COc1ncnc(C2CC2)c1-c1ncc2cnn(Cc3ccc(-c4nc(C(F)(F)F)cn4C(C)C)cc3)c2n1 + CN(C)c1ccc(Nc2c3ccc(NC(=O)CCN4CCCC4)cc3nc3cc(NC(=O)CCN4CCCC4)ccc23)cc1

>  <viability, T/C>
104%

$$$$
>  <MOLECULE>
COc1ncnc(C2CC2)c1-c1ncc2cnn(Cc3ccc(-c4nc(C(F)(F)F)cn4C(C)C)cc3)c2n1 + Cc1cnc(CNC(=O)c2c(=O)c3ccc(N4CCCN(C)CC4)nc3n3c2sc2ccccc23)cn1

>  <viability, T/C>
61.9%

$$$$
>  <MOLECULE>
O=c1[nH]cc(F)c(=O)[nH]1 + Cc1cnc(CNC(=O)c2c(=O)c3ccc(N4CCCN(C)CC4)nc3n3c2sc2ccccc23)cn1

>  <viability, T/C>
84.2%

$$$$
>  <MOLECULE>
Cc1cccc(N(C)C(=O)C2C(O)CCN2c2nc(C)cc(C(F)(F)F)c2C#N)c1 (stereo not given) + CN(C)c1ccc(Nc2c3ccc(NC(=O)CCN4CCCC4)cc3nc3cc(NC(=O)CCN4CCCC4)ccc23)cc1

>  <viability, T/C>
92.9%

$$$$
>  <MOLECULE>
CC1COCCN1c1cc(-c2ccnn2C)c2ccnc(-c3ccn[nH]3)c2n1 (stereo not given) + CN(C)c1ccc(Nc2c3ccc(NC(=O)CCN4CCCC4)cc3nc3cc(NC(=O)CCN4CCCC4)ccc23)cc1

>  <viability, T/C>
74.1%

$$$$
